Data provenance: ChEMBL document CHEMBL5058577

System: U2OS
Assay: Multiplex assay against U2OS
Type: toxicity, cell-based
Settings: human, 48 h, 1 µM, compound concentration 1 uM, replicate 1
Non-standard residues stand in square brackets, D forms with d. Residues, ends and D or L forms follow the SMILES beside them.
# reported Population Apoptotic (%); entries follow
measurement name: Population Apoptotic (%)

molecule: O=c1ccc2ccc(OCCCCN3CCN(c4cccc5sccc45)CC3)cc2[nH]1 [BREXPIPRAZOLE]
measurement name: Population Apoptotic (%)
observed measurement: 64

molecule: COc1cc(C(=O)N2CC[C@@H](O)[C@@H](N)C2)cc2nc(-c3cc4ccccc4n3CC3CC3)n(C)c12.Cl
measurement name: Population Apoptotic (%)
observed measurement: 82

molecule: Cc1cc(=O)n(C)c2cc(N3C(=O)CC[C@H](NS(=O)(=O)CC(C)C)[C@H]3c3ccc(Cl)cc3)ccc12
measurement name: Population Apoptotic (%)
observed measurement: 77

molecule: Cc1c(Cc2ccc3ccccc3n2)c2cc(F)ccc2n1CC(=O)O [TIMAPIPRANT]
measurement name: Population Apoptotic (%)
observed measurement: 88

molecule: CN1CCN2c3ccccc3Cc3ccccc3C2C1.Cl (stereo not drawn) [MIANSERIN HYDROCHLORIDE]
measurement name: Population Apoptotic (%)
observed measurement: 78

molecule: COC(c1ccccc1)(c1ccccc1)[C@H](Oc1nc(C)cc(C)n1)C(=O)O [AMBRISENTAN]
measurement name: Population Apoptotic (%)
observed measurement: 89

molecule: Cc1sc2c(c1C)C(c1ccc(Cl)cc1)=N[C@H](CC(=O)OC(C)(C)C)c1nnc(C)n1-2
measurement name: Population Apoptotic (%)
observed measurement: 77

molecule: CC(C)C[C@H](CO)Nc1nc(S[C@@H](C)c2ccccc2)nc2nc(N)sc12 [AZD-8797]
measurement name: Population Apoptotic (%)
observed measurement: 94

molecule: OCCCNc1cc(-c2ccnc(Nc3cccc(Cl)c3)n2)ccn1
measurement name: Population Apoptotic (%)
observed measurement: 95

molecule: C=CCN1C[C@H](C(=O)N(CCCN(C)C)C(=O)NCC)C[C@@H]2c3cccc4[nH]cc(c34)C[C@H]21 [CABERGOLINE]
measurement name: Population Apoptotic (%)
observed measurement: 88

molecule: O=c1nc2[nH]c3ccccc3nc-2c(=O)[nH]1 [ALLOXAZINE]
measurement name: Population Apoptotic (%)
observed measurement: 84

molecule: O=C(O)CCC/C=C\CC1C(O)CC(O)C1/C=C/C(O)COc1cccc(Cl)c1 (stereo not drawn) [CLOPROSTENOL]
measurement name: Population Apoptotic (%)
observed measurement: 89

molecule: COc1cc2nc(N3CCN(C(=O)c4ccco4)CC3)nc(N)c2cc1OC.Cl [PRAZOSIN HYDROCHLORIDE]
measurement name: Population Apoptotic (%)
observed measurement: 94

molecule: CCC(=O)OCC(=O)[C@@]1(OC(=O)CC)[C@@H](C)C[C@H]2[C@@H]3CCC4=CC(=O)C=C[C@]4(C)[C@@]3(Cl)[C@@H](O)C[C@@]21C [BECLOMETHASONE DIPROPIONATE]
measurement name: Population Apoptotic (%)
observed measurement: 91

molecule: Cc1cc(NC(=O)NCCN2CCC(O)(Cc3ccccc3)CC2)c2ccccc2n1 [PALOSURAN]
measurement name: Population Apoptotic (%)
observed measurement: 96

molecule: COc1cc2nc(N3CCN(C(=O)COc4c(OC)cccc4C(C)C)CC3)nc(N)c2cc1OC.Cl.Cl
measurement name: Population Apoptotic (%)
observed measurement: 83

molecule: COc1ccc2[nH]c(I)c(CCNC(C)=O)c2c1 [IODOMELATONIN]
measurement name: Population Apoptotic (%)
observed measurement: 92

molecule: CN1C[C@H](C(=O)N[C@]2(C)O[C@@]3(O)[C@@H]4CCCN4C(=O)[C@H](Cc4ccccc4)N3C2=O)C[C@@H]2c3cccc4[nH]cc(c34)C[C@H]21.CS(=O)(=O)O [DIHYDROERGOTAMINE MESYLATE]
measurement name: Population Apoptotic (%)
observed measurement: 80

molecule: C[C@@H]1CC(=O)Nc2cccc(-c3ccc4c(c3)c(-c3cnn(C)c3)nn4C)c2N1
measurement name: Population Apoptotic (%)
observed measurement: 100

molecule: COCCCN1CCC(NC(=O)c2cc(Cl)c(N)c3c2OCC3)CC1 [PRUCALOPRIDE]
measurement name: Population Apoptotic (%)
observed measurement: 85

molecule: CC(C)C[C@@H]1NC(=O)[C@@H](C(C)C)NC(=O)[C@@H]2CCCN2C(=O)[C@@H](CC(=O)O)NC(=O)[C@@H](Cc2c[nH]c3ccccc23)NC1=O [BQ-123] (cyclo(L[dW][dD]P[dV]))
measurement name: Population Apoptotic (%)
observed measurement: 77

molecule: O=C(NCCNCC(O)COc1ccc(O)cc1)N1CCOCC1.O=C(NCCNCC(O)COc1ccc(O)cc1)N1CCOCC1.O=C(O)/C=C/C(=O)O (stereo not drawn) [XAMOTEROL FUMARATE]
measurement name: Population Apoptotic (%)
observed measurement: 90

molecule: COc1cc(OC2CCN(C(C)=O)CC2)ccc1C(=O)N1CCC(N2C(=O)OCc3ccccc32)CC1
measurement name: Population Apoptotic (%)
observed measurement: 80

----------
Tested on: Fibroblast
Assay: Multiplex assay against human fibroblast
Type: toxicity, cell-based
Conditions: 12 h, 10 µM, compound concentration 10 uM, replicate 2
Non-standard residues stand in square brackets, D forms with d. Residues, ends and D or L forms follow the SMILES beside them.
Label Yes when Population Tubulin-Different-Phenotype (%) < 60%; otherwise No.

compound: CN1CCN(c2ccc(Nc3c4ccccc4nc4ccccc34)cc2)CC1.Cl.Cl.O
cat: No

compound: CC(C)(O)C(=O)N1CCN(c2ccc(C(F)(F)F)c(C3=C(c4c[nH]c5ccccc45)C(=O)NC3=O)c2)CC1
cat: No

compound: Cc1c(Cc2ccc3ccccc3n2)c2cc(F)ccc2n1CC(=O)O
cat: Yes

compound: CC(C)C[C@@H]1NC(=O)[C@@H](C(C)C)NC(=O)[C@@H]2CCCN2C(=O)[C@@H](CC(=O)O)NC(=O)[C@@H](Cc2c[nH]c3ccccc23)NC1=O [BQ-123] (cyclo(L[dW][dD]P[dV]))
cat: Yes

compound: CN1CCN2c3ccccc3Cc3ccccc3C2C1.Cl (stereo not drawn) [MIANSERIN HYDROCHLORIDE]
cat: Yes

compound: Nc1nc(-c2ccco2)c2cnn(Cc3ccccc3F)c2n1
cat: Yes

compound: COC(c1ccccc1)(c1ccccc1)[C@H](Oc1nc(C)cc(C)n1)C(=O)O
cat: Yes

compound: CC(C)C[C@H](CO)Nc1nc(S[C@@H](C)c2ccccc2)nc2nc(N)sc12
cat: No

compound: C[C@H](NC(=O)CNC(=O)c1cccc(Cl)c1)c1ccccc1
cat: Yes

compound: Cl.Cl.OCCOCCN1CCN(C(c2ccccc2)c2ccc(Cl)cc2)CC1 (stereo not drawn) [HYDROXYZINE HYDROCHLORIDE]
cat: Yes

compound: Cc1cc(NC(=O)NCCN2CCC(O)(Cc3ccccc3)CC2)c2ccccc2n1
cat: Yes

compound: COc1cc2nc(N3CCN(C(=O)c4ccco4)CC3)nc(N)c2cc1OC.Cl [PRAZOSIN HYDROCHLORIDE]
cat: No

compound: COc1c(Nc2ccc(S(C)(=O)=O)nc2C)ncnc1OC1CCN(C(=O)OC(C)C)CC1
cat: No

compound: O=c1ccc2ccc(OCCCCN3CCN(c4cccc5sccc45)CC3)cc2[nH]1
cat: No

compound: CN(C)C/C=C/C(=O)Nc1ccc(C(=O)N2CCCC(Nc3ncc(Cl)c(-c4c[nH]c5ccccc45)n3)C2)cc1 (stereo not drawn)
cat: Yes

compound: COc1cc(OC2CCN(C(C)=O)CC2)ccc1C(=O)N1CCC(N2C(=O)OCc3ccccc32)CC1
cat: Yes

compound: N[C@](CC1c2ccccc2Oc2ccccc21)(C(=O)O)[C@H]1C[C@@H]1C(=O)O
cat: Yes

compound: CCC(=O)OCC(=O)[C@@]1(OC(=O)CC)[C@@H](C)C[C@H]2[C@@H]3CCC4=CC(=O)C=C[C@]4(C)[C@@]3(Cl)[C@@H](O)C[C@@]21C [BECLOMETHASONE DIPROPIONATE]
cat: No

compound: C[C@@H]1CC(=O)Nc2cccc(-c3ccc4c(c3)c(-c3cnn(C)c3)nn4C)c2N1
cat: No

compound: CN1CCC(C(=O)c2cccc(NC(=O)c3c(F)cc(F)cc3F)n2)CC1
cat: No

compound: Cc1cc(-c2ccc3c(c2)CC[C@H]3N2CC3(CCN(C(=O)Cc4cn5cc(C)sc5n4)CC3)C2)ncn1
cat: Yes

compound: Cc1cc(=O)n(C)c2cc(N3C(=O)CC[C@H](NS(=O)(=O)CC(C)C)[C@H]3c3ccc(Cl)cc3)ccc12
cat: No

compound: O=c1nc2[nH]c3ccccc3nc-2c(=O)[nH]1
cat: Yes

compound: O=C(NCCNCC(O)COc1ccc(O)cc1)N1CCOCC1.O=C(NCCNCC(O)COc1ccc(O)cc1)N1CCOCC1.O=C(O)/C=C/C(=O)O (stereo not drawn) [XAMOTEROL FUMARATE]
cat: Yes

compound: CN(C)C(=O)Cn1cc(-c2ccc(-c3nnc4ccccn34)cc2)cn1
cat: No

compound: Cn1cc(C(=O)OCC2CCN(CCNS(C)(=O)=O)CC2)c2ccccc21
cat: Yes

compound: CCCCCCNC(=O)Nc1ccc(S(=O)(=O)Nc2ccc(CCNC[C@H](O)COc3ccc(O)cc3)cc2)cc1
cat: No

compound: COCCCN1CCC(NC(=O)c2cc(Cl)c(N)c3c2OCC3)CC1 [PRUCALOPRIDE]
cat: Yes

compound: COc1ccc2[nH]c(I)c(CCNC(C)=O)c2c1
cat: Yes

compound: CC(F)(F)CN1CCOc2c(nn(-c3ccccc3Cl)c2-c2ccc(Cl)cc2)C1=O
cat: Yes

compound: COc1cc(Nc2ncc3c(n2)-c2ccc(Cl)cc2C(c2c(F)cccc2OC)=NC3)ccc1C(=O)O
cat: No

compound: O=C(Nc1cc(-c2ccccc2)nn1-c1ccccc1F)c1ccc([N+](=O)[O-])cc1
cat: No

compound: COc1cc(C(=O)N2CC[C@@H](O)[C@@H](N)C2)cc2nc(-c3cc4ccccc4n3CC3CC3)n(C)c12.Cl
cat: No
